Numbers sourced from paper PMC8599795.

# TEST SYSTEM: DEN3-NS1 (NAD3) (Dengue virus 3 Sri Lanka D3/H/IMTSSA-SRI/2000/1266) (UniProt Q6YMS4)
# Sequence: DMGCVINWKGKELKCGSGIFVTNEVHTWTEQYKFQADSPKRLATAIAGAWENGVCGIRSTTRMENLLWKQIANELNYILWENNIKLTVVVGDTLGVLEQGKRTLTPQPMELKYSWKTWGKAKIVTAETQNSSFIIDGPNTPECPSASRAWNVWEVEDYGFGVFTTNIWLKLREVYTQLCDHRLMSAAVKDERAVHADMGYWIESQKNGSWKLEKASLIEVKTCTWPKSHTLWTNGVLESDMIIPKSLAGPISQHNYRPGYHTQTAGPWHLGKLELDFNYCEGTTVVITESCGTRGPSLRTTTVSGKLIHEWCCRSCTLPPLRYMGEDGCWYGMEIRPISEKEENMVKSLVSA
# MEASUREMENT DESCRIPTION: SPR
QUANTITY KIND: pKd
Formally, pKd is defined as -log10 of the concentration c, with c in mol/L.

Entry CCGCTTGTCATCTAACCTGGCCATGTGGTACTGTAACGGCTGACAAGCGGCGCGTAGCG [Cont-D3-2-59h] : pKd on DEN3-NS1 (NAD3) (Dengue virus 3 Sri Lanka D3/H/IMTSSA-SRI/2000/1266) (UniProt Q6YMS4) = 6.72

###

Listed next: entries and their corresponding pKd.
# TEST SYSTEM: DEN4-NS1 (NAD4) (Dengue virus 4 Dominica/814669/1981) (UniProt P09866)
# Sequence: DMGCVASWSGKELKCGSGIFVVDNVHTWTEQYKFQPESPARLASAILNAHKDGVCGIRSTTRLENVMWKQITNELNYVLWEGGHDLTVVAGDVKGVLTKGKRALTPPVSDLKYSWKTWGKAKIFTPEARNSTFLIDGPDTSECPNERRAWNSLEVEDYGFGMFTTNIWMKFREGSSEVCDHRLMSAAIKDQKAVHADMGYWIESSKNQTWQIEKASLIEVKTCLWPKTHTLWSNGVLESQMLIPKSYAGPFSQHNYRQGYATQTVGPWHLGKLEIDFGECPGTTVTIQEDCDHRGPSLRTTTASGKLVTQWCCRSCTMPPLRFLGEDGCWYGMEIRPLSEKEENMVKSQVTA
# MEASUREMENT DESCRIPTION: SPR
# ASSAY SETUP: N = Ds
As a rule, pKd stands for the negative log10 of the concentration, concentration in M.

- SEQUENCE INPUT: "CGGCGGAGACGTAACGCNTATCAAATCNAAACAGCTTAGGGTCCGCCGCGCGTAGCG [D4-3-57h (AptD4)]"
  TEST SYSTEM: "DEN4-NS1 (NAD4) (Dengue virus 4 Dominica/814669/1981) (UniProt P09866)"
  pKd: 10.52
- SEQUENCE INPUT: "CTCCGCTGTCAAACGGNTATCACGGCNACACACCTGCGGACAGCGGAGCGCGTAGCG [D4-1-57h]"
  TEST SYSTEM: "DEN4-NS1 (NAD4) (Dengue virus 4 Dominica/814669/1981) (UniProt P09866)"
  pKd: 10.54
- SEQUENCE INPUT: "TGATATGGTCTACTGGAGGAGACGTAACGCNTATCAAATCNAAACAGCTTAGGGTCCGACAAGCGGAGTAGTTAGACC [D4-3-78]"
  TEST SYSTEM: "DEN4-NS1 (NAD4) (Dengue virus 4 Dominica/814669/1981) (UniProt P09866)"
  pKd: 10.47

--- query ---
Measured pKd of TGATATGGTCTACTGGTCTCAACGGTTGTCAAACGGNTATCACGGCNACACACCTGCGGACAAGCGGAGTAGTTAGACC [D4-1-78] : 10.38
